- TARGET_SYSTEM: T1, human LAMP1 at the cell surface (human, UniProt P11279 29-417)
- T1 sequence: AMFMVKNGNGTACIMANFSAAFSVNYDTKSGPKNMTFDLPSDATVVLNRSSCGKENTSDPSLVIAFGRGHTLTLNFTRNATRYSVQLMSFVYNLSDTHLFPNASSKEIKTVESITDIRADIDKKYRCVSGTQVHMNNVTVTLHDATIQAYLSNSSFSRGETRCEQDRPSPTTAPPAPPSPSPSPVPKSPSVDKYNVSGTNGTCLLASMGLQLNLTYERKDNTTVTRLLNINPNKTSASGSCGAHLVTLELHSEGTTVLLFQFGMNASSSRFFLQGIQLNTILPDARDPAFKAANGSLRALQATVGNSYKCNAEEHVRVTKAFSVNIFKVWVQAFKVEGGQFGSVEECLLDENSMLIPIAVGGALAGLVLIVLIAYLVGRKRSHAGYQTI
- ASSAY: cell-based or functional assay
PROPERTY: cytotoxicity IC50, HCT116 huLAMP1 clone 8 (pM)

BINDER | UNIT_INFO | ASSAY_RESULT
DM4-SPDB-huMAb1_3 (antibody, human IgG1, kappa, V domains shown, DM4 linked through SPDB, average DAR 3.5 per antibody; sites not stated) VH: QVQLVQSGAELVKPGASVKMSCKASGYIFTNYNIHWVRQAPGQGLEWIGAIYPGNGDAPYAQKFQGRATLTADTSSSTTYMELSSLTSEDTAVYYCVRANWDVAFAYWGQGTLVTVSS VL: DIQMTQSPSSLSASVGGKVTITCKASQDIDRYMAWYQQKPGKGPKLLIHDTSTLQPGVPSRFSGSGSGRDYSLTISSLEPEDIATYYCLQYDNLWTFGGGTKLEIKR | pM | 120
DM4-SPDB-chMAb2 (antibody, human IgG1, kappa, V domains shown, DM4 linked through SPDB, average DAR 3.7 per antibody; sites not stated, also called DM4-SPDB-chMAb2can) VH: QVQLQQSAAELARPGASVKMSCKASGYTFTSYTMHWVKQRPGQGLEWIGYFNPSSGYPEYNQKFKDKTTLTADKSSNTAFIQLNSLTSEDSAVYYCSRGYYYGSRGYALDFWGQGTSVTVSS VL: NIVLTQSPASLAVSLGQRATISCRASESVDINGNTFMHWYQQKPGQSPKLLIYAASNLESGVPARFSGSGSGTDFTFTIDPVEADDVATYYCQQNIEDPWTFGGGTKLEIKR | pM | 70
DM4-SPDB-chMAb3 (antibody, human IgG1, kappa, V domains shown, DM4 linked through SPDB, average DAR 3.7 per antibody; sites not stated) VH: QIQLVQSGPELKKPGETVKISCKASGYIFTNYGMNWVKQAPGKGLKWMGWINTYTGESRYADDFKGRFALSLETSASTAYLQINNLENEDMATYFCAREDYYGNSPWFFDVWGAGTTVTVSS VL: DIQMTQTTSSLSASLGDRVTISCRASQGINKYLNWYQQKPDGTVKLLIYYTSTLHSGVPSRFSGSGSGTDYSLTINNLEPEDIATYYCQQYTRLPFTFGSGTKLEIKR | pM | 60
DM4-SPDB-huMAb1_2 (antibody, human IgG1, kappa, V domains shown, DM4 linked through SPDB, average DAR 4.05 per antibody; sites not stated) VH: QVQLVQSGAELVKPGASVKMSCKASGYIFTNYNIHWVKKSPGQGLEWIGAIYPGNGDAPYSQKFQDRATLTADTSSSTTYMELSSLTSEDSAVYYCVRANWDVAFAYWGQGTLVSVSS VL: DIQMTQSPPSLSASVGGKVTITCKASQDIDRYMAWYQDKPGKGPKLLIHDTSTLQPGIPSRFSGSGSGRDYSFSISNLEPEDIATYYCLQYDNLWTFGGGTKLEIKR | pM | 70
